- TARGET_ENTITY: human GABA A receptor α5β3γ2 (Homo sapiens, UniProt P18507+P31644)
- Construct: expressed in transfected cells; host or cells: HEK293 cells, transiently transfected; membranes prepared from them
- EXPERIMENTAL_PROTOCOL: [3H]flumazenil competition binding, HEK293 cells expressing human GABA A α5β3γ2 receptors
- APPLIED_CONDITIONS: human α5β3γ2 in HEK293 (transiently transfected), 0.5 nM [3H]flumazenil, mean of two determinations; read-out: Ki[nM] hα5
- Protocol: Membrane Preparation and Binding Assay The affinity of compounds at GABA A receptor subtypes was measured by competition for [3H]flumazenil (85 Ci/mmol; Roche) binding to HEK293 cells expressing rat (stably transfected) or human (transiently transfected) receptors of composition α1β3γ2, α2β3γ2, α3β3γ2 and α5β3γ2. […]
EXPERIMENTAL_READOUT: Ki (nM)

Solved cases below.
So what's the measured Ki for this one? COc1cc(OC)c2cc(C(=O)c3c(-c4ccccc4)noc3C)oc2c1
4.3

Can you check Cc1onc(-c2ccc(Br)cc2)c1C(=O)c1cc2cccc(F)c2o1 next?
11.7

(A) Cc1onc(-c2ccccc2)c1C(=O)c1cc2cccc(OCc3ccccn3)c2o1
(B) Cc1onc(-c2ccc(Br)cc2)c1C(=O)c1cc2cccc(OCc3ccncc3)c2o1
(C) COc1ccc2cc(C(=O)c3c(-c4ccc(Br)cc4)noc3C)oc2c1
(D) COc1cccc2oc(C(=O)c3c(-c4ccccc4)noc3C)cc12
Hey, quick one: sort these by Ki, largest value first please. Put the labels in the order asked and list them.
B, A, D, C

----------
- TARGET_ENTITY: human GABA A receptor α5β3γ2 (Homo sapiens, UniProt P18507+P31644)
- Construct: expressed in transfected cells; host or cells: HEK293 cells, transiently transfected; membranes prepared from them
- EXPERIMENTAL_PROTOCOL: [3H]flumazenil competition binding, HEK293 cells expressing human GABA A α5β3γ2 receptors
- APPLIED_CONDITIONS: human α5β3γ2 in HEK293 (transiently transfected), 0.5 nM [3H]flumazenil, mean of two determinations; read-out: Ki[nM] hα5
EXPERIMENTAL_READOUT: Ki (nM)

Solved cases below.
So what's the measured Ki for this one? Cc1onc(-c2ccc(Br)cc2)c1C(=O)c1cc2cccc(OCc3cccnc3)c2o1
36.4

Can you check CCOc1cccc2cc(C(=O)c3c(-c4ccccc4)noc3C)oc12 next?
6.5

Can you check Cc1onc(-c2ccccc2)c1C(=O)c1cc2cccc(Br)c2o1 next?
7.5

Can you check Cc1onc(-c2ccccc2)c1C(=O)c1cc2cccc(O)c2o1 next?
6.9

(I) Cc1onc(-c2ccccc2)c1C(=O)c1cc2cccc(OCc3ncnn3C)c2o1
(II) Cc1onc(-c2ccccc2)c1C(=O)c1cc2cccc(OCC(=O)NC(C)C)c2o1
Could you tell me which of these two has the smaller Ki figure? First: I Second: II Which one? Tell me its label.
II

----------
- TARGET_ENTITY: human GABA A receptor α5β3γ2 (Homo sapiens, UniProt P18507+P31644)
- Construct: expressed in transfected cells; host or cells: HEK293 cells, transiently transfected; membranes prepared from them
- EXPERIMENTAL_PROTOCOL: [3H]flumazenil competition binding, HEK293 cells expressing human GABA A α5β3γ2 receptors
- APPLIED_CONDITIONS: human α5β3γ2 in HEK293 (transiently transfected), 0.5 nM [3H]flumazenil, mean of two determinations; read-out: Ki[nM] hα5
EXPERIMENTAL_READOUT: Ki (nM)

So what's the measured Ki for this one? Cc1onc(-c2ccc(Br)cc2)c1C(=O)c1cc2cc(O)ccc2o1 [Example 42]
4.6

Can you check Cc1onc(-c2ccc(Br)cc2)c1C(=O)c1cc2ccc(O)cc2o1 [Example 40] next?
9.3

(A) Cc1onc(-c2ccccc2)c1C(=O)c1cc2cccc(OCc3ccncc3)c2o1 [Example 10]
(B) COc1cccc2oc(C(=O)c3c(-c4ccc(Br)cc4)noc3C)cc12 [Example 44]
Lab note: record which item had the higher Ki, A or B . Which one? Tell me its label.
A

(1) Cc1onc(-c2ccccc2)c1C(=O)c1cc2cccc(F)c2o1 [Example 2]
(2) Cc1onc(-c2ccc(Br)cc2)c1C(=O)c1cc2cccc(OC(C)C)c2o1 [Example 33]
Lab note: record which item had the higher Ki, 1 or 2 . Which one? Tell me its label.
2
(2: 32.9 nM, 1: 17.8 nM)

Sourced from patent US7388025B2
